The measurements presented in this section are drawn from ChEMBL document CHEMBL1136141.

- assay.summary: Minimum inhibitory activity against Streptococcus pneumoniae GC1894 (PRSP)
- Format: functional
Examples of molecules with documented MIC follow.
Give a bare numeral; the unit µg/mL is implied.

Past entries and their recorded results:
Req: For the molecule shown here, `Oc1c2c(nn1-c1ccc(C(F)(F)F)cc1)CCS2` , give the reported MIC.
Resp: 0.5

Req: For the molecule shown here, CC1Cc2nn(-c3ccc(Cl)cc3)c(O)c2S1 (configuration not stated) , give the reported MIC.
Resp: 4

Req: For the molecule shown here, `Oc1c2c(nn1-c1ccc(Cl)cc1)CCS2` , give the reported MIC.
Resp: 1

Req: For the molecule shown here, `N#Cc1ccc(-n2nc3c(c2O)SCC3)cc1` , give the reported MIC.
Resp: 4

Req: For the molecule shown here, Oc1c2c(nn1-c1ccc(Cl)cc1)CC(c1ccccc1)S2 (configuration not stated) , give the reported MIC.
Resp: 64

Req: For the molecule shown here, `CC(C)c1ccc(-n2nc3c(c2O)SCC3)cc1` , give the reported MIC.
Resp: 32

// moving on: another record for MIC
Req: For the molecule shown here, `N#Cc1cccc(-n2nc3c(c2O)SCC3)c1` , give the reported MIC.
Resp: 4

* * *

Protein target, amino acids: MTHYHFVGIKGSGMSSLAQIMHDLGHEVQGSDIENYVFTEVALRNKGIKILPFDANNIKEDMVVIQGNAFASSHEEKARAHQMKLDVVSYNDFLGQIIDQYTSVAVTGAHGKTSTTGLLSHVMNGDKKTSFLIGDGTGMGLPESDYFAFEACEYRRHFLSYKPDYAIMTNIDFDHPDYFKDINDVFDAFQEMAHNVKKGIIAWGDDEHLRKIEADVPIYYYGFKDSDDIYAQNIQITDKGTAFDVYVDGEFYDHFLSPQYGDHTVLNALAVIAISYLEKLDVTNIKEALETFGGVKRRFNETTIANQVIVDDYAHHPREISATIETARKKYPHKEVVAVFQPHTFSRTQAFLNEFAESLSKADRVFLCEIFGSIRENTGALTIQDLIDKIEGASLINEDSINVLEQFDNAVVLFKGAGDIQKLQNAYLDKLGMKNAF
assay.endpoint: IC50

Past entries and their recorded results:
Req: For the molecule shown here, `Oc1c2c(nn1-c1ccc(C(F)(F)F)cc1)CCS2` , give the reported IC50.
Resp: > 87.3 µM

Req: For the molecule shown here, `NC(=O)c1cccc(-n2nc3c(c2O)SCC3)c1` , give the reported IC50.
Resp: > 95.7 µM

Req: For the molecule shown here, Oc1c2c(nn1-c1ccc(Cl)cc1)CC(c1ccccc1)S2 (centres undefined) , give the reported IC50.
Resp: > 76 µM

// moving on: another record for IC50
Req: For the molecule shown here, `CC(C)c1ccc(-n2nc3c(c2O)SCC3)cc1` , give the reported IC50.
Resp: > 96 µM

* * *

- Test system: Enterococcus faecalis
- assay.summary: Minimum inhibitory activity against Enterococcus faecalis GC 2242 (VRE)
- Assay type: functional
assay.endpoint: MIC

Past entries and their recorded results:
Req: For the compound shown here, `CC(C)c1ccc(-n2nc3c(c2O)SCC3)cc1` , give the reported MIC.
Resp: > 128 µg/mL

Req: For the compound shown here, `CC(C)(C)c1ccc(-n2nc3c(c2O)SCC3)cc1` , give the reported MIC.
Resp: > 128 µg/mL

// moving on: another record for MIC
Req: For the compound shown here, `CN[C@H](CC(C)C)C(=O)N[C@H]1C(=O)N[C@@H](CC(N)=O)C(=O)N[C@H]2C(=O)N[C@H]3C(=O)N[C@H](C(=O)N[C@H](C(=O)O)c4cc(O)cc(O)c4-c4cc3ccc4O)[C@H](O)c3ccc(c(Cl)c3)Oc3cc2cc(c3O[C@@H]2O[C@H](CO)[C@@H](O)[C@H](O)[C@H]2O[C@H]2C[C@](C)(N)[C@H](O)[C@H](C)O2)Oc2ccc(cc2Cl)[C@H]1O` , give the reported MIC.
Resp: > 128 µg/mL

* * *

Examples of compounds with documented IC50 follow.
- subject.of.test: UDP-N-acetylenolpyruvoylglucosamine reductase (Staphylococcus aureus, UniProt P61431)
- Sequence (P61431 whole entry): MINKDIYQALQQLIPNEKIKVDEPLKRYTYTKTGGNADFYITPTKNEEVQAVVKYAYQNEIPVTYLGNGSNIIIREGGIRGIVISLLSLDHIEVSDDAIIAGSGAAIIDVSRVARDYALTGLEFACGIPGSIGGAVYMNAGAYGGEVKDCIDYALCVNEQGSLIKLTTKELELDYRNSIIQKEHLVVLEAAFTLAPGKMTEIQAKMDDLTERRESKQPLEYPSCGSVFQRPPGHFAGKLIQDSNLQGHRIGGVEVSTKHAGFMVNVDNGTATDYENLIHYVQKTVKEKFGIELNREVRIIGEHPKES

Req: For the compound shown here, `Oc1c2c(nn1-c1ccc(Cl)cc1)COC2` , give the reported IC50.
Resp: > 106 µM

Req: For the compound shown here, `Oc1c2c(nn1-c1cc(C(F)(F)F)cc(C(F)(F)F)c1)CCS2` , give the reported IC50.
Resp: > 70.6 µM

// moving on: another record for IC50
Req: For the compound shown here, CC1Cc2nn(-c3ccc(Cl)cc3)c(O)c2S1 (stereo not drawn) , give the reported IC50.
Resp: > 93.7 µM

* * *

- assay.summary: Minimum inhibitory activity against Streptococcus pneumoniae GC1894 (PRSP)
- Format: functional
assay.endpoint: MIC

Past entries and their recorded results:
Req: For the compound shown here, `CN[C@H](CC(C)C)C(=O)N[C@H]1C(=O)N[C@@H](CC(N)=O)C(=O)N[C@H]2C(=O)N[C@H]3C(=O)N[C@H](C(=O)N[C@H](C(=O)O)c4cc(O)cc(O)c4-c4cc3ccc4O)[C@H](O)c3ccc(c(Cl)c3)Oc3cc2cc(c3O[C@@H]2O[C@H](CO)[C@@H](O)[C@H](O)[C@H]2O[C@H]2C[C@](C)(N)[C@H](O)[C@H](C)O2)Oc2ccc(cc2Cl)[C@H]1O` , give the reported MIC.
Resp: < 0.12 µg/mL

Req: For the compound shown here, `Oc1c2c(nn1-c1ccc(Cl)c(Cl)c1)CCS2` , give the reported MIC.
Resp: 4 µg/mL

Req: For the compound shown here, `Oc1c2c(nn1-c1ccc(F)cc1)CCS2` , give the reported MIC.
Resp: 2 µg/mL

Req: For the compound shown here, `NC(=O)c1cccc(-n2nc3c(c2O)SCC3)c1` , give the reported MIC.
Resp: 8 µg/mL

Req: For the compound shown here, `Oc1c2c(nn1-c1cc(C(F)(F)F)cc(C(F)(F)F)c1)CCS2` , give the reported MIC.
Resp: 2 µg/mL

Req: For the compound shown here, `CC(C)(C)c1ccc(-n2nc3c(c2O)SCC3)cc1` , give the reported MIC.
Resp: 64 µg/mL

---
Req: For the compound shown here, `Oc1c2c(nn1-c1ccc(Br)cc1)CCS2` , give the reported MIC.
Resp: 1 µg/mL

Req: For the compound shown here, `Oc1c2c(nn1-c1ccccc1)CCS2` , give the reported MIC.
Resp: 4 µg/mL

Req: For the compound shown here, `Oc1c2c(nn1-c1cccc(C(F)(F)F)c1)CCS2` , give the reported MIC.
Resp: 0.5 µg/mL

Req: For the compound shown here, `O=[N+]([O-])c1cccc(-n2nc3c(c2O)SCC3)c1` , give the reported MIC.
Resp: 4 µg/mL
